The origin of these recorded values is patent EP4631972A1.

Biological target: T1, IL-2Rαβγ triple receptor (UniProt P01589 22-272; P14784 27-551; P31785 23-369)
T1 sequence (looked up) 1: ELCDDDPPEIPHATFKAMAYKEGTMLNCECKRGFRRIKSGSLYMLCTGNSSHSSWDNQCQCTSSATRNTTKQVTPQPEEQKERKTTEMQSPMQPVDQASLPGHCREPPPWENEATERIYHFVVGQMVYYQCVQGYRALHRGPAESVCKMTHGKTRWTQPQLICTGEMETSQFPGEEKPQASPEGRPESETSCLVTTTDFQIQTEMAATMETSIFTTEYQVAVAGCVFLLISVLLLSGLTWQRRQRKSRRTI
T1 sequence (looked up) 2: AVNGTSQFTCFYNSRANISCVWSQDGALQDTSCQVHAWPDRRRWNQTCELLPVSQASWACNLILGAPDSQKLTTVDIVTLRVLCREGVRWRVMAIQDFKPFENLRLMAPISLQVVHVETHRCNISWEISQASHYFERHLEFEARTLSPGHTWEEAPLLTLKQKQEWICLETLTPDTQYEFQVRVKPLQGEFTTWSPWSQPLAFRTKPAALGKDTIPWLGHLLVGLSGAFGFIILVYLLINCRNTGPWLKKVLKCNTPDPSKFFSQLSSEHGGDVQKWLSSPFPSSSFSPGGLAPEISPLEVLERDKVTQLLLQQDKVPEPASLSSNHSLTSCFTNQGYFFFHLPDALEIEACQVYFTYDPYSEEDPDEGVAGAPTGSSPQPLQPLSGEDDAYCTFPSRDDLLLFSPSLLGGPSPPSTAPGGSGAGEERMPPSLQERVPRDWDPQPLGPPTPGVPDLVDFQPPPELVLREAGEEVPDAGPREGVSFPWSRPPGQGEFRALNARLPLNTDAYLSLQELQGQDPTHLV
T1 sequence (looked up) 3: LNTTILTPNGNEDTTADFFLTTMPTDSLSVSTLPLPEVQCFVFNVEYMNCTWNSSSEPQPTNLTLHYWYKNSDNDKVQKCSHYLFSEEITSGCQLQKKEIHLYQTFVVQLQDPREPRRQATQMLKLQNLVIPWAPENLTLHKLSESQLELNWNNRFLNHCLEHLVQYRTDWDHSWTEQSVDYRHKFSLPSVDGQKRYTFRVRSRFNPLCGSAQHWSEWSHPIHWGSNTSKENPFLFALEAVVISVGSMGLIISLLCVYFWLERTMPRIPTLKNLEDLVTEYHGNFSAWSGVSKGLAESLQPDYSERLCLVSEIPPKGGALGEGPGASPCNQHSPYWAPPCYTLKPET
Assay: cell-based or functional assay
Square brackets hold non-standard residues; d marks the D form. PEG60k = one 60 kD PEG attached to the residue; Phe(4-Ac) = CC(=O)c1ccc(C[C@H](N)C(=O)O)cc1
// classify: if (Activation of IL-2αβγ triple receptor EC50 (STAT5 luciferase reporter gene assay) < 4 nM) y else n

Worked set:
- BINDER: "40k-1PEG-IL2-N88R-N77pAcF (ligand, not fully specified) APTSSSTKKTQLQLEHLLLDLQMILNGINNYKNPKLTRMLTFKFYMPKKATELKHLQCLEEELKPLEEVLNLAQSK[Phe(4-Ac)](PEG‑hydroxylamine 40 kDa)FHLRPRDLISRINVIVLELKGSETTFMCEYADETATIVEFLNRWITFSQSIISTLT"
  QUALITATIVE_LABEL: "y"
- BINDER: "60k-1PEG-IL2-N88R-N77pAcF (ligand) APTSSSTKKTQLQLEHLLLDLQMILNGINNYKNPKLTRMLTFKFYMPKKATELKHLQCLEEELKPLEEVLNLAQSK[Phe(4-Ac)](PEG60k)FHLRPRDLISRINVIVLELKGSETTFMCEYADETATIVEFLNRWITFSQSIISTLT"
  QUALITATIVE_LABEL: "n"
- BINDER: "20k-1PEG-IL2-N88R-N33pAcF (ligand, not fully specified) APTSSSTKKTQLQLEHLLLDLQMILNGINNYK[Phe(4-Ac)](PEG‑hydroxylamine 20 kDa)PKLTRMLTFKFYMPKKATELKHLQCLEEELKPLEEVLNLAQSKNFHLRPRDLISRINVIVLELKGSETTFMCEYADETATIVEFLNRWITFSQSIISTLT"
  QUALITATIVE_LABEL: "y"
- BINDER: "40k-1PEG-IL2-N88R-N33pAcF (ligand, not fully specified) APTSSSTKKTQLQLEHLLLDLQMILNGINNYK[Phe(4-Ac)](PEG‑hydroxylamine 40 kDa)PKLTRMLTFKFYMPKKATELKHLQCLEEELKPLEEVLNLAQSKNFHLRPRDLISRINVIVLELKGSETTFMCEYADETATIVEFLNRWITFSQSIISTLT"
  QUALITATIVE_LABEL: "y"

QUERY: Strictly below 4 nM in Activation of IL-2αβγ triple receptor EC50 (STAT5 luciferase reporter gene assay)? 20k-1PEG-IL2-N88R-N77pAcF (ligand, not fully specified) APTSSSTKKTQLQLEHLLLDLQMILNGINNYKNPKLTRMLTFKFYMPKKATELKHLQCLEEELKPLEEVLNLAQSK[Phe(4-Ac)](PEG‑hydroxylamine 20 kDa)FHLRPRDLISRINVIVLELKGSETTFMCEYADETATIVEFLNRWITFSQSIISTLT
RESULT: y

QUERY: Check if Activation of IL-2αβγ triple receptor EC50 (STAT5 luciferase reporter gene assay) falls below 4 nM for 60k-1PEG-IL2-N88R-N33pAcF (ligand) APTSSSTKKTQLQLEHLLLDLQMILNGINNYK[Phe(4-Ac)](PEG60k)PKLTRMLTFKFYMPKKATELKHLQCLEEELKPLEEVLNLAQSKNFHLRPRDLISRINVIVLELKGSETTFMCEYADETATIVEFLNRWITFSQSIISTLT .
RESULT: n
